Test system: P. falciparum female gametocytes
Test: P. falciparum Dual Gamete Formation Assay (PfDGFA), female readout (Pfs25-positive female gametes)
Format: cell-based, Plasmodium falciparum NF54
Settings: PfDGFA at 2µM, 24h preincubation; average of replicates
Procedure: […] The Pf DGFA was performed as described in Delves et al. 2016 [17]. […] Exflagellation was recorded by capturing 10 frames over 1 s under brightfield illumination using a x4 objective with a 1.5x zoom (effectively x6) attached to an automated Nikon Ti fluorescence microscope. […] The plates were then returned to the microscope and female gametes imaged at x6 using fluorescence microscopy. […]
Reported Average inhibition female (%) values are given for each entry in this list.
measured.endpoint: Average inhibition female (%)

- compound: "CC(Cc1ccc(COc2ccc(CC(CO)NCCc3cccc(Cl)c3)cc2)cc1)NCCc1cccc(Cl)c1.Cl (stereo not drawn) [TCMDC-139844]"
  measured.endpoint: "Average inhibition female (%)"
  measure.unit: "%"
  reported.value: 1.7
- compound: "Br.c1cc(C2=NC3CCCCC3N2)ccc1OCCCCCOc1ccc(C2=NC3CCCCC3N2)cc1 (stereo not drawn) [TCMDC-137802]"
  measured.endpoint: "Average inhibition female (%)"
  measure.unit: "%"
  reported.value: 3.6
- compound: "CCCn1cc2c(ccc3nc(N)nc(N)c32)n1 [TCMDC-137858]"
  measured.endpoint: "Average inhibition female (%)"
  measure.unit: "%"
  reported.value: -1.2
- compound: "Cc1nc2nc(N)nc(N)c2c(C)c1Cc1cccc(C#N)c1.Cl [TCMDC-137646]"
  measured.endpoint: "Average inhibition female (%)"
  measure.unit: "%"
  reported.value: -8.2
- compound: "COc1ccc(N2C(N)=NC(N)=NC2(C)C)cc1.Cl [TCMDC-124269]"
  measured.endpoint: "Average inhibition female (%)"
  measure.unit: "%"
  reported.value: 1.7
- compound: "Cc1cc(CNCCCCCCCNCc2ccc(-c3ccccc3)cc2)ccc1O [TCMDC-140415]"
  measured.endpoint: "Average inhibition female (%)"
  measure.unit: "%"
  reported.value: 3.6
- compound: "CCCC(C)c1ccc(N2C(N)=NC(N)=NC2(C)C)cc1.Cl (stereo not drawn) [TCMDC-137715]"
  measured.endpoint: "Average inhibition female (%)"
  measure.unit: "%"
  reported.value: -2.9
- compound: "ON=C1CCc2cc(-c3cc(-c4ccc(OC5CCNCC5)cc4)oc3-c3ccncc3)ccc21 [TCMDC-141381]"
  measured.endpoint: "Average inhibition female (%)"
  measure.unit: "%"
  reported.value: 2.6
- compound: "CC1(C)N=C(N)N=C(N)N1c1cccc(Cl)c1.Cl [TCMDC-123960]"
  measured.endpoint: "Average inhibition female (%)"
  measure.unit: "%"
  reported.value: -0.8
- compound: "CC(C)N(Cc1cnc2nc(N)nc(N)c2n1)c1ccc(Cl)c(Cl)c1 [TCMDC-137675]"
  measured.endpoint: "Average inhibition female (%)"
  measure.unit: "%"
  reported.value: 1.4
- compound: "CCOc1cc(Cc2cnc(N)nc2N)cc(OCC)c1O [TCMDC-137181]"
  measured.endpoint: "Average inhibition female (%)"
  measure.unit: "%"
  reported.value: -3.9
- compound: "Clc1ccc(Cc2nc3ccccc3[nH]2)cc1Cl [TCMDC-125878]"
  measured.endpoint: "Average inhibition female (%)"
  measure.unit: "%"
  reported.value: 0.655

All values here come from paper PMC10584170.
